Experiment: Plasma pharmacokinetics of docetaxel (HPLC-MS/MS)
Format: in vivo
Conditions: human, docetaxel 75 mg m^−2 IV + BIBF 1120 250 mg BID, treatment cycle 2 (n=12), read-out: t1/2, gMean (gCV%) (converted)
attribute_measured: half-life (h)
Answers are plain numbers, in h.

Value lookup for half-life; key = CC(=O)O[C@@]12CO[C@@H]1C[C@H](O)[C@@]1(C)C(=O)[C@H](O)C3=C(C)[C@@H](OC(=O)[C@H](O)[C@@H](NC(=O)OC(C)(C)C)c4ccccc4)C[C@@](O)([C@@H](OC(=O)c4ccccc4)[C@H]21)C3(C)C
19.4
